test system: CD8+ T-cells (PBMCs); assay: In vitro peptide stimulation and T-cell proliferation assay, CD8+; type: cell-based, human; conditions: Type 1 diabetes (N = 18)
Where no end group is shown, it is not given here.
VALUE TYPE: CD8+ T-cell response, subjects with SI > 1 (%)

Form field CD8+ T-cell response, subjects with SI > 1 (%), entry oxPTM-INSP-6: oxidised forms of insulin peptide 6 (B:21-30), in house oxidised or in silico derivatives (ERGFFYTPKT; not fully specified (N-terminus); also: oxidised forms, in house oxidised or in silico derivatives, modified residues not defined) : 72.2%

====

test system: serum IgG autoantibodies; assay: ELISA for autoantibody detection: serum antibody binding to native and oxPTM insulin peptides; design: species or system human; conditions: Study cohort 1; in silico modifications; cut-off = mean of healthy controls to Nt-INSP plus 3 SEM
Where no end group is shown, it is not given here.
List of % binders, Type 1 diabetes values.
State the result as a value with its unit after it.

Below, each entry is followed by its recorded % binders, Type 1 diabetes result.
{"SEQUENCE RECORD": "ERGYYYTPKT (Ac-ERGYYYTPKT) [in silico designed oxPTM-INSP-6 derivative]", "% binders, Type 1 diabetes": "100%"}
{"SEQUENCE RECORD": "ERGYYYTPKTR (Ac-ERGYYYTPKTR) [oxPTM-INSP-6 version with a C-terminal arginine]", "% binders, Type 1 diabetes": "88%"}
{"SEQUENCE RECORD": "ERGFFYTPKT (Ac-ERGFFYTPKT) [insulin B:21-30 native peptide]", "% binders, Type 1 diabetes": "63%"}

Now, please, on to the next sequence.
Form field % binders, Type 1 diabetes, entry SLYQLENYCN (Ac-SLYQLENYCN) [insulin A:12-21 native peptide] : 49%

From: patent US20260072027A1
